Items are presented alongside their recorded fold repression.
tested on: T1, ECF31_34
T1 chain: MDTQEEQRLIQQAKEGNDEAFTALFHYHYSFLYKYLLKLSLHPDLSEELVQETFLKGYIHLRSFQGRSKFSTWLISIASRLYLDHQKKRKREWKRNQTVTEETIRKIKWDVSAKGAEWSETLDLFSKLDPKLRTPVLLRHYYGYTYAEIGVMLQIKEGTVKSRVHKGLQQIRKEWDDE

{"binder": "AS22_1147 (protein) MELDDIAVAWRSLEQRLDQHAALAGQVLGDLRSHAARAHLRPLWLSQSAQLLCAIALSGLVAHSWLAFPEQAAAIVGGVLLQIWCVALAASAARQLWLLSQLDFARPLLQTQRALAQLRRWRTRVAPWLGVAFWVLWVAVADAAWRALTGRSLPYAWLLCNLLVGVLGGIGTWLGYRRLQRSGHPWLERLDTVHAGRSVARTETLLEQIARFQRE", "fold repression": 2.31}
{"binder": "AS16_3622 (protein) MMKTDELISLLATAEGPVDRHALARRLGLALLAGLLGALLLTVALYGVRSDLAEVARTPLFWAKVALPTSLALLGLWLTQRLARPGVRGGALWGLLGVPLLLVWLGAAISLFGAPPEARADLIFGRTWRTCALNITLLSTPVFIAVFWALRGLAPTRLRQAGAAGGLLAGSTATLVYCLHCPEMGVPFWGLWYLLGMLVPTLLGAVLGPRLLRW", "fold repression": 2.85}
{"binder": "AS25_1643_cl43 (protein) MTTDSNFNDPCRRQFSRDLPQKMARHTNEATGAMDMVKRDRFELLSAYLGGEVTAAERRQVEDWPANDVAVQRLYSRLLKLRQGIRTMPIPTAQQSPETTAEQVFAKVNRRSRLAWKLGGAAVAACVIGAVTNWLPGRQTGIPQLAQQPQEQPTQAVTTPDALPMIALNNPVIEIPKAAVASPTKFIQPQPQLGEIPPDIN", "fold repression": 1.58}
{"binder": "AS25_1645 (protein) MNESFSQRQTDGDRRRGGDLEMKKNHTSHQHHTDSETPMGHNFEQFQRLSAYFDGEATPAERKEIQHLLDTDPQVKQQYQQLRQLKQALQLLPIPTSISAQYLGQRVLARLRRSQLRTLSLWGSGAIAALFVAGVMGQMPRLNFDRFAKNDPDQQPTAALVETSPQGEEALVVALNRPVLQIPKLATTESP", "fold repression": 5.66}
